study_system: Falcipain 2 (Plasmodium falciparum)
Sequence (Q8I6U4 244-484): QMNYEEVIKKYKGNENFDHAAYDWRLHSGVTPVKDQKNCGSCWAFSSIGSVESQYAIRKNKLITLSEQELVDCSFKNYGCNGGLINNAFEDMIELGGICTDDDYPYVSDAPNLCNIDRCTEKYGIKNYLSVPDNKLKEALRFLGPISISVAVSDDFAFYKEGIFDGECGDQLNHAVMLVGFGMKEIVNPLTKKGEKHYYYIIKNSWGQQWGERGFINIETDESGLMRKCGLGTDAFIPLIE
pKi: −log10 of the molar value.
Cut-off 8 on pKi, inclusive. At or above means yes (1); below means no (0).

COc1cc2cc(C(=O)N[C@H](CC(C)C)C(=O)N[C@H]3CCCN(S(=O)(=O)c4ccccn4)CC3=O)sc2cc1OC (single isomer, unassigned) | yes (1)
Cc1c(C(=O)N[C@@H](CC(C)C)C(=O)N[C@H]2C[C@H](C)CN(S(=O)(=O)c3ccccn3)CC2=O)oc2ccccc12 | yes (1)
COc1ccc(S(=O)(=O)N2CCCC(NC(=O)C(CC(C)C)NC(=O)c3ccc4c(c3)OCO4)C(=O)C2)cc1 (stereo in doubt) | yes (1)
COc1ccc2oc(C(=O)N[C@@H](CC(C)C)C(=O)N[C@H]3C[C@H](C)CN(S(=O)(=O)c4ccccn4)CC3=O)cc2c1 | yes (1)
COc1cccc2cc(C(=O)N[C@@H](CC(C)C)C(=O)N[C@H]3CCCN(S(=O)(=O)c4ccc(Cl)cc4)CC3=O)oc12 | yes (1)
CC(C)CC(NC(=O)c1cc2ccccc2o1)C(=O)N[C@H]1CCCN(S(=O)(=O)c2nccn2C)CC1=O (stereo partly drawn) | yes (1)
COc1ccc(C(=O)N[C@@H](CC(C)C)C(=O)N[C@@H]2CCCN(S(=O)(=O)c3ccc(F)cc3)CC2=O)cc1OC | no (0)
CC(C)CC(NC(=O)c1nc(-c2ccccc2)oc1C(F)(F)F)C(=O)NC1CCCN(S(=O)(=O)c2ccccn2)CC1=O (single isomer, unassigned) | no (0)
CC(C)C[C@@H](NC(=O)c1ccc2c(c1)OCO2)C(=O)N[C@@H]1CCCN(S(=O)(=O)c2ccccn2)CC1=O (stereo in doubt) | yes (1)
CC(C)C[C@@H](NC(=O)c1cc2ccccc2s1)C(=O)N[C@@H]1CCCN(S(=O)(=O)c2cccc[n+]2[O-])CC1=O | yes (1)
COc1ccc2oc(C(=O)N[C@H](CC(C)C)C(=O)N[C@@H]3CCCN(S(=O)(=O)c4ccccn4)CC3=O)cc2c1 (single isomer, unassigned) | yes (1)
COc1ccc2oc(C(=O)N[C@@H](CC(C)C)C(=O)N[C@H]3CCCN(C(=O)Nc4ccccc4F)CC3=O)cc2c1 | yes (1)
CC(C)C[C@@H](NC(=O)c1ccc2ncccc2c1)C(=O)N[C@@H]1CCCN(S(=O)(=O)c2ccccn2)CC1=O (single isomer, unassigned) | yes (1)
CC(C)C[C@H](NC(=O)c1cccc2ncccc12)C(=O)N[C@H]1CCCN(S(=O)(=O)c2ccccn2)CC1=O | yes (1)
CC(C)C[C@@H](NC(=O)c1cc2cc(OCCN3CCCCC3)ccc2o1)C(=O)N[C@@H]1CCCN(S(=O)(=O)c2ccccc2)CC1=O (stereo in doubt) | no (0)

###

study_system: Cruzain (Trypanosoma cruzi, UniProt P25779)
Sequence (P25779 123-337): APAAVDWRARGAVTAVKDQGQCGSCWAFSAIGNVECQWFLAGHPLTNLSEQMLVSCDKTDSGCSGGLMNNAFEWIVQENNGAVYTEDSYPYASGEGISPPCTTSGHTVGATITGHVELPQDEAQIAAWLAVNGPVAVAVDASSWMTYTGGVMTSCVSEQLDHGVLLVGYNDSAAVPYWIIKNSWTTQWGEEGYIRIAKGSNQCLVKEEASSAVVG
assay_summary: Cysteine protease inhibition, progress curve method, cruzain
Format: biochemical
assay_context: 4 uM Ac-Lys-Glu-Lys-Leu-Arg-AMC, 100 mM Na acetate pH 5.5, 5 mM cysteine; read-out: Cruzain Ki
pKi: −log10 of the molar value.
measurement_type: pKi

Cc1cccnc1S(=O)(=O)N1CCC[C@@H](NC(=O)[C@@H](CC(C)C)NC(=O)c2oc3ccccc3c2C)C(=O)C1 (stereo in doubt) [Example 161] | 8.11
CC(C)C[C@@H](NC(=O)c1cnc2ccccc2c1)C(=O)N[C@@H]1CCCN(S(=O)(=O)c2ccccn2)CC1=O (single isomer, unassigned) [Example 156] | 8.39
CC(C)CC(NC(=O)c1cc2ccccc2o1)C(=O)NC1CCC(C)N(S(=O)(=O)c2ccccn2)CC1=O (stereo in doubt) [Example 181] | 7.82
Cc1c(C(=O)N[C@@H](CC(C)C)C(=O)N[C@@H]2CCCN(S(=O)(=O)c3cccs3)CC2=O)oc2ccccc12 [Example 145] | 8.21
CC(C)C[C@@H](NC(=O)c1cc2cc(OCCN3CCOCC3)ccc2o1)C(=O)NC1CCCN(S(=O)(=O)c2cccc[n+]2[O-])CC1=O (stereo partly shown) [Example 56] | 8.11
COc1ccc2oc(C(=O)N[C@@H](CC(C)C)C(=O)N[C@H]3CCCN(S(=O)(=O)c4cccs4)CC3=O)cc2c1 [Example 143] | 8.24
COc1cc2cc(C(=O)N[C@@H](CC(C)C)C(=O)NC3CCCN(S(=O)(=O)c4cn(C)cn4)CC3=O)oc2cc1OC (stereo partly shown) [Example 39] | 8.13
CC(C)C[C@@H](NC(=O)c1cc2ccccc2[nH]1)C(=O)N[C@@H]1CCCN(S(=O)(=O)c2ccccc2)CC1=O (stereo in doubt) [Example 11] | 7.00
COc1cccc2oc(C(=O)N[C@@H](CC(C)C)C(=O)NC3CCCN(S(=O)(=O)c4cccc[n+]4[O-])CC3=O)c(C)c12 (stereo partly shown) [Example 208] | 8.00
COc1ccc2c(C)c(C(=O)NC(CC(C)C)C(=O)N[C@H]3CCN(S(=O)(=O)c4cccc[n+]4[O-])CCC3=O)oc2c1 (single isomer, unassigned) [Example 211] | 8.00
COc1cc2cc(C(=O)N[C@H](CC(C)C)C(=O)N[C@H]3CCCN(S(=O)(=O)c4ccccn4)CC3=O)sc2cc1OC (single isomer, unassigned) [Example 165] | 8.26
Cc1ccc(C(=O)N[C@H](CC(C)C)C(=O)N[C@@H]2CCCN(S(=O)(=O)c3cccc[n+]3[O-])CC2=O)cn1 [Example 118] | 7.74
CC(C)C[C@@H](NC(=O)c1ccc(S(C)(=O)=O)cc1)C(=O)N[C@@H]1CCCN(S(=O)(=O)c2ccc(F)cc2)CC1=O [Example 121] | 7.96
CC(C)C[C@@H](NC(=O)c1ccc(Br)o1)C(=O)N[C@@H]1CCCN(S(=O)(=O)c2ccccn2)CC1=O (stereo in doubt) [Example 34] | 7.92
Cc1c(C(=O)N[C@@H](CC(C)C)C(=O)N[C@H]2CCCN(S(=O)(=O)c3nccs3)CC2=O)oc2ccccc12 [Example 126] | 8.37
CC(C)C[C@@H](NC(=O)c1cc2cc(OCCN3CCOCC3)ccc2o1)C(=O)N[C@@H]1CCCN(S(=O)(=O)c2ccccn2)CC1=O (single isomer, unassigned) [Example 19] | 8.70
CC(C)C[C@H](NC(=O)c1cc2cc(O)ccc2o1)C(=O)N[C@H]1CCCN(S(=O)(=O)c2cn(C)cn2)CC1=O [Example 44] | 7.96
COc1ccc2oc(C(=O)N[C@@H](CC(C)C)C(=O)N[C@H]3CCN(S(=O)(=O)c4cccc[n+]4[O-])CCC3=O)c(C)c2c1 [Example 205] | 8.28
Cc1occc1S(=O)(=O)N1CCC[C@H](NC(=O)[C@H](CC(C)C)NC(=O)c2cc3ccccc3o2)C(=O)C1 [Example 179] | 8.66
